Tested on: HOP-62 NSCLC
Method description: NCI tumour cell line growth inhibition, 48 h
For each record, write down the corresponding TGI.

// lookup TGI for `CCOC(=O)c1c(NC(=O)c2ccc(C(C)C)cc2)sc2c(CN(C)C)c(O)ccc12`
5.89 µM

Subsequent entry: `CC1(C)N=C(N)N=C(N)N1c1cccc(OCc2cccc(N)c2)c1`
> 100 µM

Here is the next compound: `COc1cc(Nc2ccnc(N3CCN(c4ccnc5cc(Cl)ccc45)CC3)n2)cc(OC)c1`
14.2 µM

Same for `COC(=O)c1nc(NN)[nH]c(=O)c1CCCCCc1c(C(=O)OC)[nH]c(NN)cc1=O`
> 100 µM

Further, for `NS(=O)(=O)c1ccc(N2Cc3cc(Cl)ccc3OC3=C2C(=O)N(CC2CCCCC2)C3=O)cc1` ?
3.39 µM

Next compound: `CCOc1snc(C(Cl)(Cl)Cl)c1Cl`
> 100 µM

Try the compound `NC(N)=NS(=O)(=O)c1ccc(NC(=O)c2cccc3c(NNc4ccc(S(N)(=O)=O)cc4)c4ccccc4nc23)cc1`
> 100 µM

Similarly, `CC(C)(C)OC(=O)NCC(C#N)CNC(=O)OC(C)(C)C` ?
> 100 µM

Another compound to check: `Nc1cc2c3c(cccc3c1)NC2=O`
> 100 µM

Next record, please: `Cc1nc2c(n1CC(C)(C)C)C(=O)c1ccccc1C2=O`
> 100 µM

---

System: HCT-116 colon
Method description: NCI tumour cell line growth inhibition, 48 h
Assign TGI to each entry below.

# returns recorded TGI (system: HCT-116 colon) for `CNC(=O)Nc1ccc(-c2nc(N3CCOCC3)nc3c2cnn3C2CCOCC2)cc1`
> 100 µM

Next record, please: `COC(=O)c1nc(NN)[nH]c(=O)c1CCCCCc1c(C(=O)OC)[nH]c(NN)cc1=O`
> 100 µM

Please answer likewise for `COc1cc(Nc2ccnc(N3CCN(c4ccnc5cc(Cl)ccc45)CC3)n2)cc(OC)c1`
10.3 µM

What about this compound? `Cc1cc(OCc2nnc3sc(NC(=O)c4ccccc4)nn23)ccc1Cl`
> 100 µM

Same read-out for C#CCOCC12C=CC(O1)C1COC(=O)C12 (configuration not stated) ?
> 100 µM

Item: O=c1[nH]c(=O)n(C2CC(O)C(CO)O2)cc1OC/C=C/Cc1ccccc1 (configuration not stated)
> 100 µM

Another: `NC(N)=NS(=O)(=O)c1ccc(NC(=O)c2cccc3c(NNc4ccc(S(N)(=O)=O)cc4)c4ccccc4nc23)cc1`
> 100 µM

Consider next the compound `CCCO/N=[N+](\[O-])N(CC)CC` in the same way.
> 100 µM

Now the compound CCCCCCCCCCCCOCCOCCOCCOCCOCCOCC(=O)NC(Cc1ccccc1)C(=O)Oc1ccc([N+](=O)[O-])cc1 (configuration not stated)
> 100 µM

For CC(C)c1cccc(C(C)C)c1NC(=O)C(=O)C(C(=O)c1ccccc1-c1ccccc1)C1OC(=O)c2ccccc21 (configuration not stated) then?
73.3 µM

How about `N#Cc1ccc(-c2nc(C#N)c(N)o2)cc1` ?
> 10 µM

Item: CC[N+]1(C)CCC(O)(c2ccc(C)cc2)C(C(=O)c2ccc(C)cc2)C1 (configuration not stated)
> 100 µM

One more compound: `Cc1cccc(NC(=O)c2sc3nc4c(cc3c2N)CCCC4)c1C`
> 100 µM

Then this compound: CCN(c1ccc(CO)c(Cl)c1)C(C)c1ccc(F)cc1 (configuration not stated)
17.4 µM

Repeat for the following compound: `Nc1cc(N)c2nc(-c3ccccc3)c(Oc3ccc(F)cc3)nc2c1`
80.7 µM

Try COC(=O)c1ccc2c(c1)C(NC(C)=O)CCc1cc(OC)c(OC)c(OC)c1-2 (configuration not stated) next.
0.391 µM

// query: Cc1cn(CCCCCOC(=O)NC(CCCNC(N)=O)C(=O)O)c(=O)[nH]c1=O (configuration not stated)
> 100 µM

How about this compound: `CCCCCCc1cc2cc(-c3csc(-c4ccc(OC)cc4)n3)c(=O)oc2cc1O`
20.1 µM

Now the compound CCCCCCCCCCCCNC(=O)CCC(NC(=O)c1ccc(N(C)Cc2cnc3nc(N)nc(N)c3n2)cc1)C(=O)NCCCCCCCCCCCC (configuration not stated)
> 100 µM

What about this compound? CCOc1ccc(NCC2CC/C(=C\C=C\c3ccccc3)C2=O)cc1 (configuration not stated)
20.4 µM

Could you do the same for COCC#C[C@@]1(O)CCCCC1CC(OC)OC (some centres not stated) , please?
> 100 µM

Next entry: `CCN(CC)c1ccc(NC(=S)NN(C)C)cc1`
> 10 µM
